# Assay system: human CAR (hCAR) (Homo sapiens, UniProt Q14994)
# Sequence (Q14994 1-348 isoform Q14994-2): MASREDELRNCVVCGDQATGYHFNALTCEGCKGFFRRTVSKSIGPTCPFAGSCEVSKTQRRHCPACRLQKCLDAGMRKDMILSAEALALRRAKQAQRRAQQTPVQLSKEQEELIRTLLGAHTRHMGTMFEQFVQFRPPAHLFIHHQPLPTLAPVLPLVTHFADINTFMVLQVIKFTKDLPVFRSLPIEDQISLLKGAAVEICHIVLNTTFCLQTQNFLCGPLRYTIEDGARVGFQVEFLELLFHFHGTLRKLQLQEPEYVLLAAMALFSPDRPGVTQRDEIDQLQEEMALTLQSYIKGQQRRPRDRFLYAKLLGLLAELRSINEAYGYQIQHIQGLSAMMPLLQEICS
# Assay details: cell-based
Experimental endpoint: pEC50
Conceptually, pEC50 converts a concentration in mol/L into minus its log10.

Input line: Fill blank: measured pEC50 of the molecule `CC(=O)[C@H]1CC[C@H]2[C@@H]3CC[C@@H]4CC(=O)CC[C@]4(C)[C@H]3CC[C@]12C` is ____.
Output line: 6.17

----------
# Assay system: mouse CAR (mCAR) (Mus musculus)
# Sequence (O35627 whole entry): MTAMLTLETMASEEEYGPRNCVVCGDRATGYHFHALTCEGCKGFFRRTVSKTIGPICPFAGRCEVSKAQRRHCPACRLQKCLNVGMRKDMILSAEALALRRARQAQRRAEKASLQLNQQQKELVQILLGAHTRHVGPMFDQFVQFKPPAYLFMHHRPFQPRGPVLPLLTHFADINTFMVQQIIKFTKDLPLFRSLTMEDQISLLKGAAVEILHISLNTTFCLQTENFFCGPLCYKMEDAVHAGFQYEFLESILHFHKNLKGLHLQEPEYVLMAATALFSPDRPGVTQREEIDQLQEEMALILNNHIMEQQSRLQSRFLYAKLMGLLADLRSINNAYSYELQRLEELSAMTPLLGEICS
# Measurement setup: read-out: EC50 for activation of mCAR; CV-1 cells
Experimental endpoint: EC50

Input line: Fill blank: measured EC50 of the compound Clc1cnc(Oc2ccc(Oc3ncc(Cl)cc3Cl)cc2)c(Cl)c1 [TCPOBOP] is ____.
Output line: ~100 nM
